- Measured Target: AKT2 (Homo sapiens, UniProt P31751)
- Sequence (P31751 whole entry): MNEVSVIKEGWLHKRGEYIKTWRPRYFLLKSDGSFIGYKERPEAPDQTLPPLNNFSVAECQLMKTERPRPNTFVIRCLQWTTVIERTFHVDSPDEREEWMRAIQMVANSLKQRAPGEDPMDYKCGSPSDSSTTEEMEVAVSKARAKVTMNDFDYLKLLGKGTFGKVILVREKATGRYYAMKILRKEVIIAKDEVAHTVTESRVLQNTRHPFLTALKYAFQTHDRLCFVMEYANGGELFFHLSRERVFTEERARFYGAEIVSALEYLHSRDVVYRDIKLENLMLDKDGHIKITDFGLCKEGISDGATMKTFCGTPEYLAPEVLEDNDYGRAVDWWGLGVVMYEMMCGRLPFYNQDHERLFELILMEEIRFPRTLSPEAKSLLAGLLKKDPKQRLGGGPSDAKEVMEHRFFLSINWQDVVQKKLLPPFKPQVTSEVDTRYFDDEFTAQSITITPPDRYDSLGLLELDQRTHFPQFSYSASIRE
- Assay Protocol: AKT Kinase Assay (IMAP fluorescent polarisation) vs AKT2
- Condition Context: activated AKT2, FAM Crosstide substrate
Structures can show the parent of a compound that is named as a salt.
Reported Property: IC50

In: What IC50 value was documented for this compound, NC1(c2ccc(-c3c(-c4ccccc4)oc4c(ccc5cnn(CCO)c54)c3=O)cc2)CCC1 [Example 85, hydrochloride] ?
Out: ≤ 1000 nM

In: Endpoint output: IC50 of CCc1nccc2c(=O)c(-c3ccc(C4(N)CCC4)cc3)c(-c3ccccc3)oc12 . Value?
Out: 1000 to 10000 nM

In: Look up IC50: NC1(c2ccc(-c3c(-c4ccccc4)oc4c(-c5cc[nH]n5)cccc4c3=O)cc2)CCC1 [Example 53, hydrochloride]
Out: ≤ 1000 nM

New cases:
In: Name the reported IC50 value associated with the compound NC1(c2ccc(-c3c(-c4ccccc4)oc4c(ccc5[nH]ncc54)c3=O)cc2)CCC1
Out: ≤ 1000 nM

In: IC50 for NC1(c2ccc(-c3c(-c4ccccc4)oc4ccccc4c3=S)cc2)CCC1 [Example 65, hydrochloride] ?
Out: 1000 to 10000 nM

In: What does the record list as IC50 for NC1(c2ccc(-c3c(-c4ccccc4)oc4c(ccc5c(Cl)n[nH]c54)c3=O)cc2)CCC1 [Example 99, hydrochloride] ?
Out: 1000 to 10000 nM

In: Recorded IC50 for Cn1ncc2ccc3c(=O)c(-c4ccc(C5(N)CCC5)nc4)c(-c4ccccc4)oc3c21 [Example 71, hydrochloride] , please?
Out: > 10000 nM

In: # query: IC50 of entry CON=c1c(-c2ccc(C3(N)CCC3)cc2)c(-c2ccccc2)oc2ccccc12
Out: 1000 to 10000 nM

In: # lookup: IC50 of NC1(c2ccc(-c3c(-c4ccccc4)oc4c(F)cccc4c3=O)cc2)CCC1
Out: 1000 to 10000 nM

In: Please look up its IC50: NC1(c2ccc(-c3c(-c4ccccc4)oc4c(Br)cccc4c3=O)cc2)COC1
Out: > 10000 nM

In: Recorded IC50 for COCCn1ccc2c(=O)c(-c3ccc(C4(N)CCC4)cc3)c(-c3ccccc3)oc2c1=O , please?
Out: 1000 to 10000 nM

In: Give the measured IC50 of Cc1c(-c2cccc3c(=O)c(-c4ccc(C5(N)CCC5)cc4)c(-c4ccccc4)oc23)cnn1C [Example 75, hydrochloride] .
Out: ≤ 1000 nM

In: Form field: reported IC50 of Cn1ncc2ccc3c(=O)c(-c4ccc(C5(N)CCC5)cc4)c(-c4ccccc4)oc3c21
Out: ≤ 1000 nM

In: Give the measured IC50 of NC1(c2ccc(-c3c(-c4ccccc4)oc4c(C5CC5)cccc4c3=O)cc2)CCC1 [Example 54, hydrochloride] .
Out: ≤ 1000 nM

In: Please look up its IC50: NC1(c2ccc(-c3c(-c4ccccc4)oc4c(-n5ccnc5)cccc4c3=O)cc2)CCC1 [Example 74, hydrochloride]
Out: ≤ 1000 nM

In: IC50 for Nc1ccc2c(=O)c(-c3ccc(C4(N)CCC4)cc3)c(-c3ccccc3)oc2c1O ?
Out: 1000 to 10000 nM

* * *

- Measured Target: UniProtKB P31749
- Sequence (P31749 whole entry): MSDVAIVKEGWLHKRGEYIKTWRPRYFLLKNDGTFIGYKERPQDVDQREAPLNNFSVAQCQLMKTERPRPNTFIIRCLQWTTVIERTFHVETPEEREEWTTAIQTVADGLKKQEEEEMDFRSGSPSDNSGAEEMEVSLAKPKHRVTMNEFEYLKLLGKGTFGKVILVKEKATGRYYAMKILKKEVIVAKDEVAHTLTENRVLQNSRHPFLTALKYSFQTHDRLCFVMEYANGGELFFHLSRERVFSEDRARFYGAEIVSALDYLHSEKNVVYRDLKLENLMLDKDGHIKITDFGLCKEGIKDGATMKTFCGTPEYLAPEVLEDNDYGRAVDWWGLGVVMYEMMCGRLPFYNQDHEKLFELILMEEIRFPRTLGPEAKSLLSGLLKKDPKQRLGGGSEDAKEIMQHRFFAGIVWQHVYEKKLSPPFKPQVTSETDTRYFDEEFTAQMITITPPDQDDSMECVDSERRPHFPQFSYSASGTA
- Assay Protocol: AKT Kinase Assay (IMAP fluorescent polarisation) vs AKT1
- Condition Context: activated AKT1, FAM Crosstide substrate
pIC50: −log10 of the molar value. Where a name gives a salt, the structure may show the parent alone.
Measured pIC50, listed per entry for reference.

The cases that follow already have their pIC50 on record.
In: Sample NC1(c2ccc(C3=C(c4ccccc4)c4ccccc4C3=O)cc2)CCC1 [Example 48, hydrochloride] — what was its pIC50?
Out: 5.00 to 6.00

In: Quick check: pIC50 of NC1(c2ccc(-c3c(-c4ccccc4)oc4c5c(ccc4c3=O)NC(=O)CO5)cc2)CCC1 ?
Out: ≥ 6.00

In: Form field: reported pIC50 of Cc1nn(C)c(C)c1-c1nccc2c(=O)c(-c3ccc(C4(N)CCC4)cc3)c(-c3ccccc3)oc12
Out: < 5.00

In: Looking for the measured pIC50 of Cc1nccc2c(=O)c(-c3ccc(C4(N)CCC4)cc3)c(-c3ccccc3)oc12 , can you help?
Out: 5.00 to 6.00

In: For NC1(c2ccc(-c3c(-c4ccccc4)oc4c(CN5CC(F)C5)cccc4c3=O)cc2)CCC1 , what is its reported pIC50?
Out: 5.00 to 6.00

In: I'd like to know its pIC50. The compound in question is Cn1cc(-c2cccc3c(=O)c(-c4ccc(C5(N)CCC5)cc4)c(-c4ccccc4)oc23)cn1 [Example 55, hydrochloride]
Out: ≥ 6.00

Consider the additional compound presented here.
In: Could you share which pIC50 value was measured for NC1(c2ccc(-c3c(-c4ccccc4)oc4c(-c5cc[nH]n5)cccc4c3=O)cc2)CCC1 [Example 53, hydrochloride] ?
Out: ≥ 6.00
